Test: Example 1B: SC and SL pharmacokinetics in dogs with metabolite analysis
Type: in vivo
Settings: male, beagle, dog, plasma, SC, 1 mg/kg, analyte parent
Measured quantity: Cmax (ng/mL)

Input smiles | Cmax (ng/mL)
[2H]C1([2H])CN2c3c(cccc3N1C)[C@@H]1CN(CCCC(=O)c3ccc(F)cc3)CC[C@@H]12 | 79
CN1CCN2c3c(cccc31)[C@@H]1CN(CCCC(=O)c3ccc(F)cc3)CC[C@@H]12 | 76

###

Test: Example 1B: SC and SL pharmacokinetics in dogs with metabolite analysis
Format: in vivo
Conditions: male, beagle, dog, plasma, SC, 1 mg/kg, analyte parent
Measured quantity: Tmax (h)

Input smiles | Tmax [h]
[2H]C1([2H])CN2c3c(cccc3N1C)[C@@H]1CN(CCCC(=O)c3ccc(F)cc3)CC[C@@H]12 | 1
CN1CCN2c3c(cccc31)[C@@H]1CN(CCCC(=O)c3ccc(F)cc3)CC[C@@H]12 | 1
